Molecular target: vanilloid receptor 1 (VR1/TRPV1 receptor) (Homo sapiens)
Test: Functional FLIPR Ca2+ influx assay on vanilloid receptor 1, capsaicin (Cap) stimulus
Format: cell-based
Conditions: inhibition at 5 μM, read-out: (f) inhibition (human being), Cap, @5 μM
So I've got a bunch of compounds here, and I need their inhibition at 5 µM values.
Numbers only, in %.

Known results for compounds:
compound	unit-text	inhibition at 5 µM
COc1cncc(-c2nc(C(F)(F)F)ccc2CNC(=O)C(C)c2ccc(CNS(C)(=O)=O)c(F)c2)c1 (stereo not shown) [Example 69]	%	49
CC(C(=O)NCc1ccc(C(F)(F)F)nc1-c1ccccc1F)c1ccc(CNS(C)(=O)=O)c(F)c1 (stereo not shown) [Example 6]	%	37
C[C@@H](C(=O)NCc1ccc(C(F)(F)F)nc1-c1ccc(F)c(Cl)c1)c1ccc(CNS(C)(=O)=O)c(F)c1 [Example 18]	%	42

Turning to the following compound.
Value of inhibition at 5 µM reported for the compound Cc1ccc(C)c(-c2nc(C(F)(F)F)ccc2CNC(=O)C(C)c2ccc(CNS(C)(=O)=O)c(F)c2)c1 (stereo not shown) [Example 33] is 35

---

Biological target: vanilloid receptor 1 (VR1/TRPV1 receptor) (Homo sapiens, UniProt Q8NER1)
Assay: Functional FLIPR Ca2+ influx assay on vanilloid receptor 1, capsaicin (Cap) stimulus
Type: cell-based
Conditions: Ki from IC50 by Cheng-Prusoff, read-out: (f) Ki (human being) [nM], Cap
Experimental: […] In the process, the Ca^2+ influx is quantified in the FLIPR assay with the aid of a Ca^2+-sensitive dye (type Fluo-4, Molecular Probes Europe BV, Leiden, the Netherlands) in a fluorescent imaging plate reader (FLIPR, Molecular Devices, Sunnyvale, USA), as described hereinafter. […] The FLIPR protocol consists of 2 substance additions. […] After 5 minutes' incubation, 100 nM of capsaicin are applied and the Ca^2+ influx is also determined. […]
readout-name: Ki
Please append the unit to your numeric answer.

Known results for molecules:
molecule	Ki
COc1ccc(-c2nc(C(F)(F)F)ccc2CNC(=O)C(C)c2ccc(CNS(C)(=O)=O)c(F)c2)cn1 (stereo not shown)	72 nM
Cc1cccc(-c2nc(C(F)(F)F)ccc2CNC(=O)Nc2ccc(CNS(C)(=O)=O)c(C)c2)c1	7 nM
Cc1cccc(-c2nc(C(F)(F)F)ccc2CNC(=O)[C@@H](C)c2ccc(CNS(C)(=O)=O)c(F)c2)c1	15 nM
CC(C(=O)NCc1ccc(C(F)(F)F)nc1-c1ccc(F)cc1)c1ccc(CNS(C)(=O)=O)c(F)c1 (stereo not shown)	66 nM

Would you be so kind as to report Ki for each listed record?
1. COc1c(C)cccc1-c1nc(C(F)(F)F)ccc1CNC(=O)C(C)c1ccc(CNS(C)(=O)=O)c(F)c1 (stereo not shown)
2. Cc1cc(-c2nc(C(F)(F)F)ccc2CNC(=O)C(C)c2ccc(CNS(C)(=O)=O)c(F)c2)ccc1C#N (stereo not shown)
3. Cc1cccc(-c2nc(C(F)(F)F)ccc2CNC(=O)C(C)c2ccc(CNS(C)(=O)=O)c(F)c2)c1F (stereo not shown)

Result:
65 nM
66 nM
27 nM

---

So I've got a bunch of compounds here, and I need their Ki values.
Molecular target: vanilloid receptor 1 (VR1/TRPV1 receptor) (Homo sapiens, UniProt Q8NER1)
Assay: Functional FLIPR Ca2+ influx assay on vanilloid receptor 1, capsaicin (Cap) stimulus
Format: cell-based
Conditions: Ki from IC50 by Cheng-Prusoff, read-out: (f) Ki (human being) [nM], Cap
Protocol: […] In the process, the Ca^2+ influx is quantified in the FLIPR assay with the aid of a Ca^2+-sensitive dye (type Fluo-4, Molecular Probes Europe BV, Leiden, the Netherlands) in a fluorescent imaging plate reader (FLIPR, Molecular Devices, Sunnyvale, USA), as described hereinafter. […] The FLIPR protocol consists of 2 substance additions. […] After 5 minutes' incubation, 100 nM of capsaicin are applied and the Ca^2+ influx is also determined. […]
Answers are plain numbers, in nM.

compound	tgt	readout-name	unit-text	value-observed
CC(C(=O)NCc1ccc(C(F)(F)F)nc1-c1cccc(C(C)(C)C)c1)c1ccc(CNS(C)(=O)=O)c(F)c1 (stereo not shown) [Example 51]	vanilloid receptor 1 (VR1/TRPV1 receptor) (Homo sapiens, UniProt Q8NER1)	Ki	nM	1
Cc1cccc(-c2nc(C(F)(F)F)ccc2CNC(=O)Nc2ccc(CNS(C)(=O)=O)c(F)c2)c1 [Example 27]	vanilloid receptor 1 (VR1/TRPV1 receptor) (Homo sapiens, UniProt Q8NER1)	Ki	nM	10
Cc1cccc(-c2nc(C(F)(F)F)ccc2CNC(=O)Nc2ccc(CNS(C)(=O)=O)cc2)c1 [Example 2]	vanilloid receptor 1 (VR1/TRPV1 receptor) (Homo sapiens, UniProt Q8NER1)	Ki	nM	10

Would you be so kind as to report Ki for each listed record?
1. COc1ccc(-c2nc(C(F)(F)F)ccc2CNC(=O)C(C)c2ccc(CNS(C)(=O)=O)c(F)c2)cc1C (stereo not shown) [Example 43]
2. COc1ccc(-c2nc(C(F)(F)F)ccc2CNC(=O)C(C)c2ccc(CNS(C)(=O)=O)c(F)c2)cc1 (stereo not shown) [Example 62]

Result:
1. 35
2. 59

Would you be so kind as to report Ki for each listed record?
1. COc1cc(NC(=O)NCc2ccc(C(F)(F)F)nc2-c2cccc(C)c2)ccc1CNS(C)(=O)=O [Example 80]
2. Cc1cccc(-c2nc(C(C)(C)C)ccc2CNC(=O)C(C)c2ccc(CNS(C)(=O)=O)c(F)c2)c1 (stereo not shown) [Example 23]

Result:
1. 68
2. 24

---

Biological target: vanilloid receptor 1 (VR1/TRPV1 receptor) (Homo sapiens)
Experiment: Functional FLIPR Ca2+ influx assay on vanilloid receptor 1, capsaicin (Cap) stimulus
Format: cell-based
Conditions: Ki from IC50 by Cheng-Prusoff, read-out: (f) Ki (human being) [nM], Cap
Label Yes when Ki is strictly below 70 nM; otherwise label No.

compound	discrete-label
COc1cc(C(C)C(=O)NCc2ccc(C(F)(F)F)nc2-c2cccc(C)c2)ccc1CNS(C)(=O)=O (stereo not shown)	No
C[C@H](C(=O)NCc1ccc(C(F)(F)F)nc1-c1ccc(F)c(Cl)c1)c1ccc(CNS(C)(=O)=O)c(F)c1	Yes
Cc1cccc(-c2nc(C(F)(F)F)ccc2CNC(=O)C(C)c2ccc(CNS(N)(=O)=O)cc2)c1 (stereo not shown)	Yes
Cc1cc(F)cc(-c2nc(C(F)(F)F)ccc2CNC(=O)C(C)c2ccc(CNS(C)(=O)=O)c(F)c2)c1 (stereo not shown)	Yes
CC(C(=O)NCc1ccc(C(F)(F)F)nc1-c1cc(F)ccc1F)c1ccc(CNS(C)(=O)=O)c(F)c1 (stereo not shown)	Yes
COc1cc(C)cc(-c2nc(C(F)(F)F)ccc2CNC(=O)C(C)c2ccc(CNS(C)(=O)=O)c(F)c2)c1 (stereo not shown)	No

Ask: Quick check: does CC(C(=O)NCc1ccc(C(F)(F)F)nc1-c1cccc(C#N)c1)c1ccc(CNS(C)(=O)=O)c(F)c1 (stereo not shown) have Ki under 70 nM?
Result: No

---

Biological target: vanilloid receptor 1 (VR1/TRPV1 receptor) (Homo sapiens)
Assay: Functional FLIPR Ca2+ influx assay on vanilloid receptor 1, capsaicin (Cap) stimulus
Assay type: cell-based
Conditions: Ki from IC50 by Cheng-Prusoff, read-out: (f) Ki (human being) [nM], Cap
Label satisfied when Ki is strictly below 30 nM; otherwise label not satisfied.

Examples from the recorded data:
compound	tgt	discrete-label
CCOc1cccc(-c2nc(C(F)(F)F)ccc2CNC(=O)C(C)c2ccc(CNS(C)(=O)=O)c(F)c2)c1 (stereo not shown)	vanilloid receptor 1 (VR1/TRPV1 receptor) (Homo sapiens)	satisfied
CC(C(=O)NCc1ccc(C(F)(F)F)nc1-c1cccc(C(F)F)c1)c1ccc(CNS(C)(=O)=O)c(F)c1 (stereo not shown)	vanilloid receptor 1 (VR1/TRPV1 receptor) (Homo sapiens)	satisfied
Cc1cccc(-c2nc(C(F)(F)F)ccc2CNC(=O)Nc2ccc(CNS(N)(=O)=O)c(F)c2)c1	vanilloid receptor 1 (VR1/TRPV1 receptor) (Homo sapiens)	satisfied

Ask: Quick check: does CC(C(=O)NCc1ccc(C(F)(F)F)nc1-c1ccc(F)c(Cl)c1)c1ccc(CNS(C)(=O)=O)c(F)c1 (stereo not shown) have Ki under 30 nM?
Result: satisfied

Ask: Quick check: does COc1cccc(-c2nc(C(F)(F)F)ccc2CNC(=O)C(C)c2ccc(CNS(C)(=O)=O)c(F)c2)c1 (stereo not shown) have Ki under 30 nM?
Result: not satisfied

Ask: Quick check: does CC(C(=O)NCc1ccc(C(F)(F)F)nc1-c1ccc(C#N)cc1)c1ccc(CNS(C)(=O)=O)c(F)c1 (stereo not shown) have Ki under 30 nM?
Result: not satisfied

Ask: Quick check: does CC(C(=O)NCc1ccc(C(F)(F)F)nc1-c1cccc(N(C)C)c1)c1ccc(CNS(C)(=O)=O)c(F)c1 (stereo not shown) have Ki under 30 nM?
Result: not satisfied

---

Target: vanilloid receptor 1 (VR1/TRPV1 receptor) (Homo sapiens)
Experiment: Functional FLIPR Ca2+ influx assay on vanilloid receptor 1, capsaicin (Cap) stimulus
Format: cell-based
Conditions: Ki from IC50 by Cheng-Prusoff, read-out: (f) Ki (human being) [nM], Cap
Label T when Ki is strictly below 30 nM; otherwise label F.

molecule	tgt	discrete-label
CC(C(=O)NCc1ccc(C(F)(F)F)nc1-c1ccc(F)c(F)c1)c1ccc(CNS(C)(=O)=O)c(F)c1 (stereo not drawn)	vanilloid receptor 1 (VR1/TRPV1 receptor) (Homo sapiens)	T
CCS(=O)(=O)NCc1ccc(NC(=O)NCc2ccc(C(F)(F)F)nc2-c2cccc(C)c2)cc1	vanilloid receptor 1 (VR1/TRPV1 receptor) (Homo sapiens)	T

Now for another entry.
Ask: Quick check: does Cc1cccc(-c2nc(C3CC3)ccc2CNC(=O)C(C)c2ccc(CNS(C)(=O)=O)c(F)c2)c1 (stereo not drawn) have Ki under 30 nM?
Result: F
